Biological target: GST-NAP(1-166) (Arabidopsis thaliana, UniProt O49255 1-166)
Sequence: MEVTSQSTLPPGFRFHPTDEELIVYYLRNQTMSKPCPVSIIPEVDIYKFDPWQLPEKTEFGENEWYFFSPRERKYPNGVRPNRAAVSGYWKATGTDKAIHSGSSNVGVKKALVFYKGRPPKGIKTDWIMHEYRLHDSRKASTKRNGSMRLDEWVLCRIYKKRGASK
Experiment: universal protein binding microarray (PBM); high values mean tight binding
Settings: protein: recombinant; tags: GST; chain copies: 2; dsDNA, one strand shown
binding signal values, listed per item
Field: numeric (E-score). Do not append units.

Observe how each entry below is paired with its result.
[[record]]
monomer_sequence = "ATTACGTC"
experimental_readout = "binding signal"
measured_value = 0.376

[[record]]
monomer_sequence = "CTTACCCC"
experimental_readout = "binding signal"
measured_value = 0.096

[[record]]
monomer_sequence = "GTAAGGAA"
experimental_readout = "binding signal"
measured_value = 0.268

[[record]]
monomer_sequence = "ACGTAACC"
experimental_readout = "binding signal"
measured_value = 0.43

[[record]]
monomer_sequence = "GAGGGAAA"
experimental_readout = "binding signal"
measured_value = 0.0766

[[record]]
monomer_sequence = "GTGCCGTA"
experimental_readout = "binding signal"
measured_value = 0.412


Briefly, binding signal measured for `TGCCGTAA` : 0.402

Briefly, binding signal measured for `CACACGTC` : 0.172

Briefly, binding signal measured for `TTACGTAA` : 0.484

Briefly, binding signal measured for `GTTGCGTA` : 0.477

Briefly, binding signal measured for `CCACGCAA` : 0.305

* * *

Molecular target: GST-VND7 NAC domain (Arabidopsis thaliana, UniProt Q9C8W9 9-158)
Sequence: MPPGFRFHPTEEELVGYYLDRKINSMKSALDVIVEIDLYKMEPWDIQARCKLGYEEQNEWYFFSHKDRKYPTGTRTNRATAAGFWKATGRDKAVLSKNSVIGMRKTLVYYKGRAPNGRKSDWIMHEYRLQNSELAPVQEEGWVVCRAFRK
Assay: universal protein binding microarray (PBM); high values mean tight binding
Settings: protein: recombinant; tags: GST; chain copies: 2; dsDNA, one strand shown
Define the label as fulfilled when binding signal is strictly less than 0.3 E-score and as not fulfilled in all remaining cases.

Query block: Does the reported binding signal of `CTAGGAAA` stay below 0.3 E-score?
Result block: fulfilled

* * *

binding signal values, listed per item
Target: GST-VND3 NAC domain (Arabidopsis thaliana, UniProt Q9FH59 12-162)
Sequence: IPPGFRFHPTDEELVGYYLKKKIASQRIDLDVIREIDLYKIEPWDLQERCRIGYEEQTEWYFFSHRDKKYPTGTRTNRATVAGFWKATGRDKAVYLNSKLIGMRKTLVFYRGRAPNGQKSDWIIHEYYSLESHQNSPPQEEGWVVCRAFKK
Assay: universal protein binding microarray (PBM); high values mean tight binding
Conditions: protein: recombinant; tags: GST; chain copies: 2; dsDNA, one strand shown

Observe how each entry below is paired with its result.
[[record]]
monomer_sequence = "CACGCAAA"
tested_target = "GST-VND3 NAC domain (Arabidopsis thaliana, UniProt Q9FH59 12-162)"
measured_value = "0.396 E-score"

[[record]]
monomer_sequence = "ACACGGAA"
tested_target = "GST-VND3 NAC domain (Arabidopsis thaliana, UniProt Q9FH59 12-162)"
measured_value = "0.467 E-score"

[[record]]
monomer_sequence = "GTTTCCTA"
tested_target = "GST-VND3 NAC domain (Arabidopsis thaliana, UniProt Q9FH59 12-162)"
measured_value = "0.179 E-score"

[[record]]
monomer_sequence = "ACGGCAGT"
tested_target = "GST-VND3 NAC domain (Arabidopsis thaliana, UniProt Q9FH59 12-162)"
measured_value = "0.342 E-score"

[[record]]
monomer_sequence = "GCTAAGTA"
tested_target = "GST-VND3 NAC domain (Arabidopsis thaliana, UniProt Q9FH59 12-162)"
measured_value = "0.0851 E-score"


Record for `AATTTGAC` under target or system GST-VND3 NAC domain (Arabidopsis thaliana, UniProt Q9FH59 12-162): binding signal reported as 0.0556 E-score

Record for `TATGGTCA` under target or system GST-VND3 NAC domain (Arabidopsis thaliana, UniProt Q9FH59 12-162): binding signal reported as 0.0521 E-score

* * *

Target: GST-VND3 NAC domain (Arabidopsis thaliana, UniProt Q9FH59 12-162)
Sequence: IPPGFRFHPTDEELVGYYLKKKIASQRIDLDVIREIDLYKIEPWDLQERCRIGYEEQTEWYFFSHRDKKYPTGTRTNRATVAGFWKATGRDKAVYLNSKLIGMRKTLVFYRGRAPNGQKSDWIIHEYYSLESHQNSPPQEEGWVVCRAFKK
Assay: universal protein binding microarray (PBM); high values mean tight binding
Details: protein: recombinant; tags: GST; chain copies: 2; dsDNA, one strand shown
binding signal values, listed per item
Field: numeric (E-score). Do not append units.

Observe how each entry below is paired with its result.
[[record]]
monomer_sequence = "ATATTGAC"
units_of_measure = "E-score"
measured_value = 0.169

[[record]]
monomer_sequence = "CTAACGTA"
units_of_measure = "E-score"
measured_value = 0.25

[[record]]
monomer_sequence = "TCACGGCA"
units_of_measure = "E-score"
measured_value = 0.45

[[record]]
monomer_sequence = "GACGTCAA"
units_of_measure = "E-score"
measured_value = 0.126

[[record]]
monomer_sequence = "ACGCTAAC"
units_of_measure = "E-score"
measured_value = 0.127


Briefly, binding signal measured for `ACGTAAAA` : 0.368

Briefly, binding signal measured for `TTACGTAA` : 0.483

* * *

Target: GST-NAP(1-166) (Arabidopsis thaliana, UniProt O49255 1-166)
Sequence: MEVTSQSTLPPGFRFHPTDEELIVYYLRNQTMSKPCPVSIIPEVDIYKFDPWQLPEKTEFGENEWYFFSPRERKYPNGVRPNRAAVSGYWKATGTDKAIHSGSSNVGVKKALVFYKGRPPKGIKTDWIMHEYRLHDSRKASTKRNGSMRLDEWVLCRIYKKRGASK
Assay: universal protein binding microarray (PBM); high values mean tight binding
Details: protein: recombinant; tags: GST; chain copies: 2; dsDNA, one strand shown
binding signal values, listed per item
Field: numeric (E-score). Do not append units.

[[record]]
monomer_sequence = "ACGCAAGT"
measured_value = 0.356

[[record]]
monomer_sequence = "GACGTAAA"
measured_value = 0.311

[[record]]
monomer_sequence = "GCGTGTAC"
measured_value = 0.261

[[record]]
monomer_sequence = "AGTTACGC"
measured_value = 0.115

[[record]]
monomer_sequence = "AACGTAAC"
measured_value = 0.315


Briefly, binding signal measured for `GCGTGTGA` : 0.145

Briefly, binding signal measured for `GTACGCCA` : 0.0526

Briefly, binding signal measured for `CTACGTTA` : 0.135

Briefly, binding signal measured for `GCGTGTCA` : 0.186

Briefly, binding signal measured for `TCACGTAA` : 0.405

Briefly, binding signal measured for `AGACACGC` : 0.0846

* * *

binding signal values, listed per item
Target: GST-NTL6(1-168) (Arabidopsis thaliana, UniProt Q9SCK6 1-168)
Sequence (Q9SCK6 1-168): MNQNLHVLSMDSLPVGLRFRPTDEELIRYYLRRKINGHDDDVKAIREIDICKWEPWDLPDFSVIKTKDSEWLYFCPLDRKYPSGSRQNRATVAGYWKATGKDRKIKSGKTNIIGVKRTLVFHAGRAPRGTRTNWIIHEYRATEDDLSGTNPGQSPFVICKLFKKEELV
Experiment: universal protein binding microarray (PBM); high values mean tight binding
Settings: protein: recombinant; tags: GST; chain copies: 2; dsDNA, one strand shown
Field: numeric (E-score). Do not append units.

[[record]]
monomer_sequence = "AGTTTGAC"
measured_value = 0.0778

[[record]]
monomer_sequence = "AAAGTCTT"
measured_value = 0.0508

[[record]]
monomer_sequence = "AACGTAAT"
measured_value = 0.183

[[record]]
monomer_sequence = "TTAAGGAA"
measured_value = 0.48

[[record]]
monomer_sequence = "GGGGGTAA"
measured_value = 0.147

[[record]]
monomer_sequence = "CACGTTAA"
measured_value = 0.0985

[[record]]
monomer_sequence = "TGCCGTAA"
measured_value = 0.114

[[record]]
monomer_sequence = "ACGTAATA"
measured_value = 0.176

[[record]]
monomer_sequence = "GGGGGAAA"
measured_value = 0.314

[[record]]
monomer_sequence = "GCGAAGAC"
measured_value = 0.12


Kindly consider the entry below.
Record for `AATGCGTG` under target or system GST-NTL6(1-168) (Arabidopsis thaliana, UniProt Q9SCK6 1-168): binding signal reported as 0.147

* * *

Target: GST-ATAF1 NAC domain (Arabidopsis thaliana, UniProt Q39013 7-158)
Sequence: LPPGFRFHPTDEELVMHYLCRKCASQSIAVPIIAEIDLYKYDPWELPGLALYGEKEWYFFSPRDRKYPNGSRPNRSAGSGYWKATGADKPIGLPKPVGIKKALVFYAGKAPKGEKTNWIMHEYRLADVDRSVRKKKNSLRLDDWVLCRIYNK
Assay: universal protein binding microarray (PBM); transcription factors of Arabidopsis thaliana; high values mean tight binding
Conditions: protein: recombinant; tags: GST; chain copies: 2; dsDNA, one strand shown
EXPERIMENTAL_READOUT: binding signal (E-score)
Field: numeric (E-score). Do not append units.

Observe how each entry below is paired with its result.
[[record]]
monomer_sequence = "AAGGAATC"
units_of_measure = "E-score"
measured_value = 0.0816

[[record]]
monomer_sequence = "GAAAAGTC"
units_of_measure = "E-score"
measured_value = 0.137

[[record]]
monomer_sequence = "GAGGTAAC"
units_of_measure = "E-score"
measured_value = 0.0779

[[record]]
monomer_sequence = "GTCAATTA"
units_of_measure = "E-score"
measured_value = 0.202


Briefly, binding signal measured for `ACGTAAGT` : 0.407

Briefly, binding signal measured for `ATTGACTA` : 0.259
